Value source: patent US20240262892A1

- subject of test: SARS-CoV-2 RBD (receptor binding domain of spike protein of SARS-CoV-2) (SARS-CoV-2, UniProt P0DTC2 319-541)
- protocol text: ELISA, SARS-CoV-2 RBD coated on the plate, anti-human IgG-HRP, OD450
property: EC50 (µg/mL)

>>> readout_number("Antibody 5-10 (antibody, V domains shown) VH: EVQLLESGGGLVQPGGSLRLSCAASGFTFSSYAMSWVRQAPGKGLEWVSAIVGSGGSTYYADSVKGRFIISRDNSKNTLYLQMNSLRAEDTAVYYCAKSLIYGHYDILTGAYYFDYWGQGTLVTVSS VL: DIQMTQSPSSVSASVGDRVTIPCRASQGIGNWLAWYQQKPGKAPKLLIYAASSLQSGVPSRFSGSGSGTDFTLTISSLQPEDFATYYCQQANSFPPFGQGTRLEIK")
0.0269
>>> readout_number("Antibody 34-2 (antibody, V domains shown) VH: EVQLVESGGGLVQPGRSLRLSCAASGFTFDESAMHWVRQAPGEGLEWVSGISWNSGRIAYADSVRGRFTISRDNAKNSLYLQMNSLRAEDTALYFCALTTSGWFSFDYWGQGTLVTVSS VL: SYVLTQPPSVSVAPGKTARITCGGNNIGSKSVHWYQQKPGQAPVPVIYYDSDRPSGIPERFSGSNSGNTATLTISRVEVGDEADYYCQVWDSSSDRAVFGGGTTLTVL")
0.0493
>>> readout_number("Antibody 8-3 (antibody, V domains shown) VH: EVQLVESGGGLVQPGGSLRLSCAASGITVSSNYMNWVRQAPGKGLDWVSVIYSGGSTFYADSVKGRFIISRDNSKNTLFLQMDSLRVEDTAVYYCARDLVVRGVDIWGQGTMVTVSS VL: DIQLTQSPSFLSASVGDRVTITCRASQGISSDLAWYHQKPGKAPKLLIYAASTLQSGVPSRFSGSGSGTEFTLTISSLQPEDFATYYCQQLNSYRGLIFGGGTKVEIK")
0.0483
>>> readout_number("Antibody 8-1 (antibody, V domains shown) VH: EVQLVESGGGLIQPGGSLRLSCAASGLTVSSNYMTWVRQAPGKGLEWVSVIYSGGSTFYAESVKGRFTISRDNSKNTLYLQMNSLRAEDTAVYYCARDLVVYGMDVWGQGTTVIVSS VL: DIQLTQSPSFLSASVGDRVTITCRASQGISSDLAWYQQKPGKAPKLLIYAASTLQSGVPSRFSGSGSGTEFTLTISSLQPEDFATYYCQQLNSHPLAFGPGTKVDIK")
0.0506
